# System: hGIPR (Homo sapiens, UniProt P48546)
# Sequence (P48546 22-466): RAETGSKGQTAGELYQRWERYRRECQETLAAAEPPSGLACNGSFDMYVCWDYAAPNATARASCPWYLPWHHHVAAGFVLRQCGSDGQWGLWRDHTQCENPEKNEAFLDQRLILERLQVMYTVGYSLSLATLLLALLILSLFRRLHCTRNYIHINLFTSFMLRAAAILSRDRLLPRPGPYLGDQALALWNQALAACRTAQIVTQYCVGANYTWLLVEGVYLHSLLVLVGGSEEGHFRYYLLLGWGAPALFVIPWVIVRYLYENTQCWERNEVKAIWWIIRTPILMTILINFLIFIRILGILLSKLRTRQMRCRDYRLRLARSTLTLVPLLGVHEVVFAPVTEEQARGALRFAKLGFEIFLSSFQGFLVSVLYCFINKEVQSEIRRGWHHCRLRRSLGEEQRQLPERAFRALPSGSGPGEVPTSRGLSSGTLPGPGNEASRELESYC
# Test Name: Functional cAMP activity in the presence of 1% HSA
# Assay type: cell-based
# Experimental Parameters: read-out: cAMP Rel EC50, hGIPR
Starred links: 1 amine or outer side, 2 acyl side, 3 side chain; linkers in the order of their positions; H or OH if unused. Non-standard residues stand in square brackets, D forms with d. Groups on a side chain read outwards from the residue. *: point of attachment. C18 diacid = O=C(O)CCCCCCCCCCCCCCCCC(=O)*; Phe(4-CN) = N#Cc1ccc(C[C@H](N)C(=O)O)cc1; αMePhe(2-F) = C[C@](N)(Cc1ccccc1F)C(=O)O; γGlu = O=C(O)[C@H](CCC(=O)[*:2])N[*:1]; αMe4Pal = C[C@](N)(Cc1ccncc1)C(=O)O; αMeY = C[C@](N)(Cc1ccc(O)cc1)C(=O)O; 4Pal = N[C@@H](Cc1ccncc1)C(=O)O; αMeL = CC(C)C[C@](C)(N)C(=O)O; αMeS = C[C@](N)(CO)C(=O)O; Orn = NCCC[C@H](N)C(=O)O; AEEA = NCCOCCOCC(=O)O; Aib = CC(C)(N)C(=O)O
Readout Label: EC50 (nM)
Report only the number, with the unit nM understood.

substance="H-Y[Aib]QGTFTSD[4Pal]S[Orn][αMeL]LD[Orn]K([dE-γGlu-C18 diacid])AQ[αMe4Pal]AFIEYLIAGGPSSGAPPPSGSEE-NH2 [Example 1063]" system="hGIPR (Homo sapiens, UniProt P48546)" readout_label=EC50 test_result=26.6

INPUT: I'd like to know its EC50. The substance in question is H-Y[Aib]QGT[αMePhe(2-F)]TSD[4Pal][αMeS]I[αMeL]LD[Orn]K([γGlu-γGlu-C18 diacid])AQ[αMe4Pal]EFI[dE][αMeY]LVEGGPSSGEPPPSGSE-NH2 [Example 1163]
OUTPUT: 0.721

INPUT: I'd like to know its EC50. The substance in question is H-Y[Aib]QGTFTSD[Phe(4-CN)]S[Orn][αMeL]LDKK([AEEA-AEEA-γGlu-C18 diacid])AQ[Aib]AFIEYLLE[Aib]GPSSGAPPPSGS-NH2 [Example 178]
OUTPUT: 47.3
